Recorded IC50 for the following molecules
- System: HCMV wild-type
- Assay method text: HCMV yield assay
- Type: cell-based, human cytomegalovirus
- Condition summary: Human betaherpesvirus 5, Fibroblast; human foreskin fibroblasts; read-out: IC50 (ug/ml) HCMV
# unit: µg/mL | format: bare number

Req: Give the reported IC50 for this molecule. COc1cc(OC)c(NC(=S)Nc2ccc(NC(=O)c3ccco3)c(C(F)(F)F)c2)cc1Cl [Example 308]
Resp: 10

Req: Give the reported IC50 for this molecule. COc1cc(OC)c(NC(=S)Nc2ccc(NC(=O)c3ccco3)c(OC)c2)cc1Cl [Example 304]
Resp: 7

Req: Give the reported IC50 for this molecule. COc1cc(OC)c(NC(=S)Nc2cc(O)c(NC(=O)c3ccco3)cc2Cl)cc1Cl [Example 320]
Resp: 8
